FYI, the data here is from patent US20080119515A1.

system: UniProtKB P43403
run description: DELFIA assay (ZAP-70 kinase, phosphorylation of biotinylated poly(glu,tyr))
Type: biochemical
settings: ZAP-70 DELFIA, class symbols; read-out: Activity (IC50 in vitro)
Reported values of IC50 for individual entries

Use these answered entries as a reference point.
- chemical string: "O=C(c1cc(NCc2ccc(C(F)(F)F)cc2)nc2ccc(-c3ccc(CO)cc3)cc12)N1CCC[C@H]1CN1CCCC1"
  system: "UniProtKB P43403"
  IC50: "> 10 µM"
- chemical string: "O=C(c1cc(Sc2ccc(C(F)(F)F)cc2)nc2ccc(-c3ccc4c(c3)OCO4)cc12)N1CCC[C@H]1CN1CCCC1"
  system: "UniProtKB P43403"
  IC50: "> 10 µM"
- chemical string: "O=C(c1cc(NCc2ccc(C(F)(F)F)cc2)nc2ccc(C#Cc3ccc(Cl)cc3)cc12)N1CCC[C@H]1CN1CCCC1"
  system: "UniProtKB P43403"
  IC50: "< 1 µM"
- chemical string: "CN(c1cc(C(=O)N2CCC[C@H]2CN2CCCC2)c2cc(-c3ccc4c(c3)OCO4)ccc2n1)C1CCCCC1"
  system: "UniProtKB P43403"
  IC50: "< 1 µM"
- chemical string: "FC(F)(F)c1ccc(CNc2cc(N3CCC[C@H]3CN3CCCC3)nc3ccc(-c4ccc5c(c4)OCO5)cc23)cc1"
  system: "UniProtKB P43403"
  IC50: "1 to 10 µM"

Then there is this compound:
Request - read-out IC50 | tested on UniProtKB P43403 | compound O=C(c1cc(NCc2ccc(C(F)(F)F)cc2)nc2ccc(-c3ccc4c(c3)OCO4)cc12)N1CCC[C@H]1CNC1CCCCC1
1 to 10 µM

----------
system: ZAP-70 (Homo sapiens, UniProt P43403)
Sequence (P43403 1-619): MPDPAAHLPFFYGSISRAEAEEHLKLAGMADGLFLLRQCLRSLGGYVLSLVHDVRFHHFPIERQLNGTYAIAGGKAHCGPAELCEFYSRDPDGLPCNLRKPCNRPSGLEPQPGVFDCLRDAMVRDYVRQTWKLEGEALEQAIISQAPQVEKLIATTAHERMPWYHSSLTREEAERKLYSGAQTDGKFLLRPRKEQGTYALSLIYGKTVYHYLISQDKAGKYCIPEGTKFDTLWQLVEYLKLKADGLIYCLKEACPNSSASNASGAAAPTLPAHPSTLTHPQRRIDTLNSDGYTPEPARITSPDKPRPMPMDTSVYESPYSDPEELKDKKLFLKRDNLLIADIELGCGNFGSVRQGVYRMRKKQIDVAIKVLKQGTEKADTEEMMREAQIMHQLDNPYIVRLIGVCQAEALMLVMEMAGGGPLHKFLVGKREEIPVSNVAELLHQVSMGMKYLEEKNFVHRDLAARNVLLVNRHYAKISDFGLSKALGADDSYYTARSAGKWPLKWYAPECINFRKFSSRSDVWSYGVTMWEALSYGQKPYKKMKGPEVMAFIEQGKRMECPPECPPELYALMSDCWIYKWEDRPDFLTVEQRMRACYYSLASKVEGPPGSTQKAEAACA
run description: DELFIA assay (ZAP-70 kinase, phosphorylation of biotinylated poly(glu,tyr))
Format: biochemical
settings: ZAP-70 DELFIA, class symbols; read-out: Activity (IC50 in vitro)
experimental readout: IC50

Use these answered entries as a reference point.
- compound: "O=C(c1cc(Cc2ccccc2)nc2ccc(-c3ccc4c(c3)OCO4)cc12)N1CCC[C@H]1CN1CCCC1"
  experimental readout: "IC50"
  result: "< 1 µM"
- compound: "O=C(c1cc(NCc2ccc(C(F)(F)F)cc2)nc2ccc(-c3cncc4ccccc34)cc12)N1CCC[C@H]1CN1CCCC1"
  experimental readout: "IC50"
  result: "> 10 µM"
- compound: "N#Cc1ccc(-c2ccc3nc(NCc4ccc(Cl)cc4)cc(C(=O)N4CCC[C@H]4CN4CCCC4)c3c2)cc1"
  experimental readout: "IC50"
  result: "> 10 µM"
- compound: "O=C(c1cc(Cc2ccc(N3CCNCC3)cc2)nc2ccc(-c3ccc4c(c3)OCO4)cc12)N1CCCC1CN1CCCC1 (centres unmarked)"
  experimental readout: "IC50"
  result: "< 1 µM"

Then there is this compound:
Requested read-out: IC50. Entry: N#Cc1ccc(-c2ccc3nc(NCc4ccccc4)cc(C(=O)N4CCC[C@H]4CN4CCCC4)c3c2)cc1
> 10 µM

----------
system: ZAP-70 (Homo sapiens, UniProt P43403)
Sequence (P43403 1-619): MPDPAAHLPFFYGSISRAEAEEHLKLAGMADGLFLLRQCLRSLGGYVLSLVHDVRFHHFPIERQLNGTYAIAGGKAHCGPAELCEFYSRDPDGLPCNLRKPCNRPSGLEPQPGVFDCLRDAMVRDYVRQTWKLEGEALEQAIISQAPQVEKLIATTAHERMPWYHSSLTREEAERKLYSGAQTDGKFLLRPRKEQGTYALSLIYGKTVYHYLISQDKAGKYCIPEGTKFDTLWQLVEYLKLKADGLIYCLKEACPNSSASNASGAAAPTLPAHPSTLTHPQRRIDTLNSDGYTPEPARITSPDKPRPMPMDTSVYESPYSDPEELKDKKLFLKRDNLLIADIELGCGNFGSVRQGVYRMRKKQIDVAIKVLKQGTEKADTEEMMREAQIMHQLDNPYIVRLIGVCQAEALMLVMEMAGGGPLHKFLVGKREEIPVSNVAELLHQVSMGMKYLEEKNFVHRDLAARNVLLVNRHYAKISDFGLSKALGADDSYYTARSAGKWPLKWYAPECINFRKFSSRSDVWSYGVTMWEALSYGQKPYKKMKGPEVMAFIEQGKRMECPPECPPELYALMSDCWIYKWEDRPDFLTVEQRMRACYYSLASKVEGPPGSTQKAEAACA
run description: DELFIA assay (ZAP-70 kinase, phosphorylation of biotinylated poly(glu,tyr))
Assay type: biochemical
settings: ZAP-70 DELFIA, class symbols; read-out: Activity (IC50 in vitro)
Reported values of IC50 for individual entries

Use these answered entries as a reference point.
- compound: "O=C(c1cc(NCc2ccc(C(F)(F)F)cc2)nc2ccc(-c3ccc(C(F)(F)F)cc3)cc12)N1CCC[C@H]1CN1CCCC1 [Compound 296]"
  IC50: "1 to 10 µM"
- compound: "O=C(c1cc(NCCc2c[nH]cn2)nc2ccc(-c3ccc4c(c3)OCO4)cc12)N1CCC[C@H]1CN1CCCC1 [Compound 49]"
  IC50: "1 to 10 µM"
- compound: "O=C(Cc1cc(C(=O)N2CCC[C@H]2CN2CCCC2)c2cc(-c3ccc4c(c3)OCO4)ccc2n1)c1ccc(C(F)(F)F)cc1 [Compound 431]"
  IC50: "1 to 10 µM"
- compound: "O=C(c1cc(Nc2ccc3cn[nH]c3c2)nc2ccc(-c3ccc4c(c3)OCO4)cc12)N1CCC[C@H]1CN1CCCC1 [Compound 57]"
  IC50: "< 1 µM"

Then there is this compound:
Request - read-out IC50 | tested on ZAP-70 (Homo sapiens, UniProt P43403) | compound O=C(c1cc(NCc2ccc(F)cc2)nc2ccc(-c3ccc4c(c3)OCO4)cc12)N1CCC[C@H]1CN1CCCC1 [Compound 30]
< 1 µM

----------
system: ZAP-70 (Homo sapiens, UniProt P43403)
run description: DELFIA assay (ZAP-70 kinase, phosphorylation of biotinylated poly(glu,tyr))
Type: biochemical
settings: ZAP-70 DELFIA, class symbols; read-out: Activity (IC50 in vitro)
Experimental: Before initiation of kinase reactions, compounds were pre-incubated with ZAP-70. […] The amount of phosphate transferred to biotinylated poly(glu,tyr) was measured using the Dissociation Enhanced Lanthanide Fluorescence Immuno-assay (DELFIA) from Perkin Elmer according to manufacturers protocol. […] Free antibody was removed with six washes, Europium was dissociated from the antibody, and Europium fluorescence was measured at using an excitation wavelength of 340 nm and an emission wavelength of 615 nm.
experimental readout: IC50

Requested read-out: IC50. Entry: N#Cc1ccc(-c2ccc3nc(N[C@@H]4CCCc5ccccc54)cc(C(=O)N4CCC[C@H]4CN4CCCC4)c3c2)cc1
> 10 µM

Requested read-out: IC50. Entry: Cn1ccc2cc(-c3ccc4nc(NCc5ccc(C(F)(F)F)cc5)cc(C(=O)N5CCC[C@H]5CN5CCCC5)c4c3)ccc21
> 10 µM

Requested read-out: IC50. Entry: CN(CCc1ccccc1)c1cc(C(=O)N2CCC[C@H]2CN2CCCC2)cc(/C=C/c2ccc(C(F)(F)F)cc2)n1
1 to 10 µM

Requested read-out: IC50. Entry: O=C(c1cc(NCc2ccc(C(F)(F)F)cc2)nc2cc(-c3ccc(Cl)c(Cl)c3)ccc12)N1CCC[C@H]1CN1CCCC1
1 to 10 µM

Requested read-out: IC50. Entry: N#Cc1ccc(-c2ccc3c(C(=O)N4CCC[C@H]4CN4CCCC4)cc(NCc4ccc(C(F)(F)F)cc4)nc3c2)cc1
1 to 10 µM

Requested read-out: IC50. Entry: O=C(c1cc(NCc2ccc(Cl)cc2)nc2ccc(-c3ccc4c(c3)OCO4)cc12)N1CC2CC2[C@H]1CN1CCCC1 (stereo partly shown)
1 to 10 µM

Requested read-out: IC50. Entry: O=C(c1cc(N2CCc3ccccc3C2)nc2ccc(-c3ccc4c(c3)OCO4)cc12)N1CCC[C@H]1CN1CCCC1
< 1 µM
